assay.system: Mitotic checkpoint serine/threonine-protein kinase BUB1 (Homo sapiens)
Sequence (O43683 whole entry): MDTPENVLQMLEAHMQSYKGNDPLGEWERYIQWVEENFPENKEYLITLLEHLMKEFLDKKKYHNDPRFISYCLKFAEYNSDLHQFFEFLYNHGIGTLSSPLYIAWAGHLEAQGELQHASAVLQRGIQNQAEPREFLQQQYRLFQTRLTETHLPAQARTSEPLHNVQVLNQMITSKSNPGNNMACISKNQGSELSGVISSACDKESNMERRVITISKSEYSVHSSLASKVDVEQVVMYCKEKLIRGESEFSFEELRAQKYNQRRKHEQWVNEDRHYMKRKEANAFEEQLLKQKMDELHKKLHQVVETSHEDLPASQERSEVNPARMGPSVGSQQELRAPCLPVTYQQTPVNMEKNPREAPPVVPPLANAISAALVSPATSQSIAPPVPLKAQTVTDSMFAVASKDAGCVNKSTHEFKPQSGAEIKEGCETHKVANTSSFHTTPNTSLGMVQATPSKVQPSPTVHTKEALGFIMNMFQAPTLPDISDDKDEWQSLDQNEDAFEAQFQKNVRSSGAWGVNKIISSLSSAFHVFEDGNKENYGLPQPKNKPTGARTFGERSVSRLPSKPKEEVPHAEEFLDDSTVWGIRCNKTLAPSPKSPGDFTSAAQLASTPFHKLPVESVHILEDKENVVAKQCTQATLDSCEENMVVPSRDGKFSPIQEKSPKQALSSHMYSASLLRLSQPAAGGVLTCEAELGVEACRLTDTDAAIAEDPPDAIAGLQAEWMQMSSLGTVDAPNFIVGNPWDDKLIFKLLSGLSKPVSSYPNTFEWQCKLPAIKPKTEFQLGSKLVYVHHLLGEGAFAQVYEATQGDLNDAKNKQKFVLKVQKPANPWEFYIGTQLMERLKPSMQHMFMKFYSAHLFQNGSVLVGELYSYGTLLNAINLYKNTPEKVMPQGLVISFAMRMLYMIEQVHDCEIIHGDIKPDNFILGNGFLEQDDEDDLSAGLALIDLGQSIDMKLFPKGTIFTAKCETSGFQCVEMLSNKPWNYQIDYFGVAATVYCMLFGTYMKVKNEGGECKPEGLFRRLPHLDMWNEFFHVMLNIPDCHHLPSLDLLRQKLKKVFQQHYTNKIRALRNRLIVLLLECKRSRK
test.protocol: To this end, 100-fold concentrated compound solutions (in DMSO) were previously prepared by serial dilution (1:3.4) of 2 mM stocks in a clear low volume 384-well source microtiter plate (Greiner Bio-One, Frickenhausen, Germany), from which 50 nl of compounds were transferred into a black low volume test microtiter plate from the same supplier. […] The resulting mixture (5 μl final volume) was incubated at 22° C. during 60 min., and the reaction was stopped by the addition of 5 μl of an aqueous EDTA-solution (50 mM EDTA, in 100 mM HEPES pH 7.5 and 0.2% (w/v) bovine serum albumin) which also contained the TR-FRET detection reagents (0.2 μM streptavidin-XL665 [Cisbio Bioassays, Codolet, France] and 1 nM anti-phosho-Serine antibody [Merck Millipore, cat. #35-001] and 0.4 nM LANCE EU-W1024 labeled anti-mouse IgG antibody [Perkin-Elmer, product no. AD0077, alternatively a Terbium-cryptate-labeled anti-mouse IgG antibody from Cisbio Bioassays can be used]). The stopped reaction mixture was further incubated 1 h at 22° C. in order to allow the formation of complexes between peptides and detection reagents. Subsequently, the amount of product was evaluated by measurement of the resonance energy transfer from the Eu-chelate-antlbody complex recognizing the Phosphoserlne residue to the streptavidin-XL665 bound to the biotin moiety of the peptide. […] IC50 values were calculated by fitting the normalized inhibition data to a 4-parameter logistic equation (Minimum, Maximum, IC50, Hill; Y=Max+(Min−Max)/(1+(X/IC50)Hill)) using a Bayer-proprietary analysis software.
value.type: IC50 (nM)

1) CCOc1cc(F)c(Cn2nc(-c3ncc(OCCSC)c(Nc4ccncc4)n3)c3ccccc32)c(F)c1 | 14
2) COc1cnc(-c2nn(Cc3c(F)cc(F)cc3F)c3ccccc23)nc1N(Cc1c(F)cc(F)cc1F)c1ccncc1 | 890
3) CCOc1cc(F)c(Cn2nc(-c3ncc(OCCOCCO)c(Nc4ccncc4)n3)c3ccccc32)c(F)c1 | 7.4
4) COc1cnc(-c2nn(Cc3c(F)c(F)c(OCC(F)(F)F)c(F)c3F)c3ccccc23)nc1N(Cc1c(F)c(F)c(OCC(F)(F)F)c(F)c1F)c1ccncc1 | 3200
5) COc1cnc(-c2nn(Cc3ccc(C#N)cc3F)c3ccccc23)nc1N(Cc1ccc(C#N)cc1F)c1ccncc1 | 1100
